Let's look at some compounds and their measured pIC50.
# experimental_target: C481S mutant BTK [BTK(C481S)] (Homo sapiens (Human), UniProt Q06187, C481S)
# Sequence (Q06187 whole entry C481S): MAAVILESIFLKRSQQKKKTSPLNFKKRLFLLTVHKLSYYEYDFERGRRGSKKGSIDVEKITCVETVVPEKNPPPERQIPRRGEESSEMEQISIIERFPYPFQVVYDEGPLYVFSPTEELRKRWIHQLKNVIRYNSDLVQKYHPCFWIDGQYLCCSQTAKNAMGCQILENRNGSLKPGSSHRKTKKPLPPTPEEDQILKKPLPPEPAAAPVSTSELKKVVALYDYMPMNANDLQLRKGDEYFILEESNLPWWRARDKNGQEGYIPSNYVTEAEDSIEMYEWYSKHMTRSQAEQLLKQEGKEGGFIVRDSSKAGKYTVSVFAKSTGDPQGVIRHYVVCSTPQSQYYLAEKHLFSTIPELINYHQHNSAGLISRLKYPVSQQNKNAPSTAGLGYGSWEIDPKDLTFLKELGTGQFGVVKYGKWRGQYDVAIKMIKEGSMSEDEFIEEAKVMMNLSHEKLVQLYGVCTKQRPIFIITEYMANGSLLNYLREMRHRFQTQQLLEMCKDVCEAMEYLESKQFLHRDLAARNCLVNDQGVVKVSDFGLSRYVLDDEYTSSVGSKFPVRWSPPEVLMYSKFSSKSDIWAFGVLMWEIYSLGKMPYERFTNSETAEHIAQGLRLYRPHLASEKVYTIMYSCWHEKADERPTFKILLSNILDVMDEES
# test_name: C481S Mutant BTK Inhibitory Activity Test (mobility shift assay)
# recorded_conditions: C481S mutant BTK, 100 μM ATP
Note on pIC50: it is the negative log10 of concentration, concentration in mol/L.

Worked set:
1) CN1CCN(C(=O)N2CC=C(c3cc4c(-c5cccc(-n6ccc7cc(C8CC8)cc(F)c7c6=O)c5CO)nc(N)nc4[nH]3)CC2)CC1: 9.24
2) CCN(CC)Cc1ccc(-c2cc3c(-c4cccc(-n5ccc6cc(C7CC7)cc(F)c6c5=O)c4CO)nc(N)nc3[nH]2)cc1: 9.12

With those in mind, consider the next compound.
Data request: Would you mind telling me what pIC50 value was observed for Nc1nc(-c2cccc(-n3ccc4cc(C5CC5)cc(F)c4c3=O)c2CO)c2cc(-c3ccc(CN4CCCCC4)cc3)[nH]c2n1 ?
Data returned: 9.07

* * *

# experimental_target: C481S mutant BTK [BTK(C481S)] (Homo sapiens (Human), UniProt Q06187, C481S)
# test_name: C481S Mutant BTK Inhibitory Activity Test (mobility shift assay)
# Assay type: biochemical
# recorded_conditions: C481S mutant BTK, 100 μM ATP
Let's look at some compounds and their measured pIC50.
Note on pIC50: it is the negative log10 of concentration, concentration in mol/L.

Worked set:
1) CS(=O)(=O)c1ccc(-c2cc3c(-c4cccc(-n5ccc6cc(C7CC7)cc(F)c6c5=O)c4CO)nc(N)nc3[nH]2)cc1 [Example 41]: 8.99
2) Nc1nc(-c2cccc(-n3ccc4cc(C5CC5)cc(F)c4c3=O)c2CO)c2nc(-c3ccccc3)[nH]c2n1 [Example 2]: 9.00
3) Nc1nc(-c2cccc(-n3ccc4cc(C5CC5)cc(F)c4c3=O)c2CO)c2cc(-c3ccc(CN4CCNC(=O)C4)cc3)[nH]c2n1 [Example 66]: 9.03

Data request: Please state recorded pIC50 (tested on C481S mutant BTK [BTK(C481S)] (Homo sapiens (Human), UniProt Q06187, C481S)) of Nc1nc(-c2cccc(-n3ccc4cc(C5CC5)cc(F)c4c3=O)c2CO)c2cc(C3=CCN(C(=O)N4CCCC4)CC3)[nH]c2n1 [Example 88]
Data returned: 8.83

Data request: Please state recorded pIC50 (tested on C481S mutant BTK [BTK(C481S)] (Homo sapiens (Human), UniProt Q06187, C481S)) of CN1CCN(Cc2ccc(-c3cc4c(-c5cccc(-n6ccc7cc(C8CC8)cc(F)c7c6=O)c5CO)nc(N)nc4[nH]3)cc2)CC1 [Example 8]
Data returned: 9.37

Data request: Please state recorded pIC50 (tested on C481S mutant BTK [BTK(C481S)] (Homo sapiens (Human), UniProt Q06187, C481S)) of Nc1nc(-c2cccc(-n3ccc4cc(C5CC5)cc(F)c4c3=O)c2CO)c2cc(C3=CCNCC3)[nH]c2n1 [Example 93]
Data returned: 9.00

* * *

# experimental_target: C481S mutant BTK [BTK(C481S)] (Homo sapiens (Human), UniProt Q06187, C481S)
# test_name: C481S Mutant BTK Inhibitory Activity Test (mobility shift assay)
# Type: biochemical
# recorded_conditions: IC50[BTK(C481S)]/IC50[BTK(WT)]
assay_endpoint: C481S mutation-resistance
// no unit string in output, number only

1. CCC(=O)N1CC=C(c2cc3c(-c4cccc(-n5ccc6cc(C7CC7)cc(F)c6c5=O)c4CO)nc(N)nc3[nH]2)CC1: 2

Data request: Would you mind telling me what C481S mutation-resistance value was observed for Nc1nc(-c2cccc(-n3ccc4cc(C5CC5)cc(F)c4c3=O)c2CO)c2cc(-c3ccc(CN4CCNC(=O)C4)cc3)[nH]c2n1 ?
Data returned: 2

Data request: Would you mind telling me what C481S mutation-resistance value was observed for CN(C)C(=O)N1CC=C(c2cc3c(-c4cccc(-n5ccc6cc(C7CC7)cc(F)c6c5=O)c4CO)nc(N)nc3[nH]2)CC1 ?
Data returned: 1.8

Data request: Would you mind telling me what C481S mutation-resistance value was observed for Nc1nc(-c2cccc(-n3ccc4cc(C5CC5)cc(F)c4c3=O)c2CO)c2cc(-c3ccc(CN4CCN(CCO)CC4)cc3)[nH]c2n1 ?
Data returned: 1.6

Data request: Would you mind telling me what C481S mutation-resistance value was observed for Nc1nc(-c2cccc(-n3ccc4cc(C5CC5)cc(F)c4c3=O)c2CO)c2nc(-c3ccccc3)[nH]c2n1 ?
Data returned: 1.0

Data request: Would you mind telling me what C481S mutation-resistance value was observed for Nc1nc(-c2cccc(-n3ccc4cc(C5CC5)cc(F)c4c3=O)c2CO)c2cc(-c3cccc(F)n3)[nH]c2n1 ?
Data returned: 1.2

Data request: Would you mind telling me what C481S mutation-resistance value was observed for CNc1cc(-c2cc3c(-c4cccc(-n5ccc6cc(C7CC7)cc(F)c6c5=O)c4CO)nc(N)nc3[nH]2)ccn1 ?
Data returned: 2.1

Data request: Would you mind telling me what C481S mutation-resistance value was observed for Nc1nc(-c2cccc(-n3ccc4cc(C5CC5)cc(F)c4c3=O)c2CO)c2cc(-c3ccc(CN4CCCC4)cc3)[nH]c2n1 ?
Data returned: 1.8

* * *

# experimental_target: BTK (Homo sapiens (Human), UniProt Q06187)
# Sequence (Q06187 whole entry): as the sequence (Q06187 whole entry C481S) above, with S481C counted along it
# test_name: Intracellular BTK Auto-Phosphorylation Activity Inhibition Test in Ramos cells
# Type: cell-based
# recorded_conditions: test compound 0.03 μM, anti-IgM stimulation, pY223, read-out: Inhibitory Activity on BTK-phosphorization
assay_endpoint: inhibition at 0.03 µM

Worked set:
1) Nc1nc(-c2cccc(-n3ccc4cc(C5CC5)cc(F)c4c3=O)c2CO)c2nc(-c3ccccc3)[nH]c2n1 [Example 2]: ≥ 90%
2) CN1CCN(Cc2ccc(-c3cc4c(-c5cccc(-n6ccc7cc(C8CC8)cc(F)c7c6=O)c5CO)nc(N)nc4[nH]3)cc2)CC1 [Example 8]: ≥ 90%
3) COc1ccccc1-c1cc2c(-c3cccc(-n4ccc5cc(C6CC6)cc(F)c5c4=O)c3CO)nc(N)nc2[nH]1 [Example 14]: 70 to 90%

With those in mind, consider the next molecule.
Data request: Would you mind telling me what inhibition at 0.03 µM value was observed for Nc1nc(-c2cccc(-n3ccc4cc(C5CC5)cc(F)c4c3=O)c2CO)c2cc(-c3ccsc3)[nH]c2n1 [Example 32] ?
Data returned: ≥ 90%

* * *

# experimental_target: UniProt Q06187
# test_name: Intracellular BTK Auto-Phosphorylation Activity Inhibition Test in Ramos cells
# Assay type: cell-based
# recorded_conditions: test compound 0.03 μM, anti-IgM stimulation, pY223, read-out: Inhibitory Activity on BTK-phosphorization
Let's look at some molecules and their measured inhibition at 0.03 µM.

Worked set:
1. Nc1nc(-c2cccc(-n3ccc4cc(C5CC5)cc(F)c4c3=O)c2CO)c2nc(-c3cccnc3)[nH]c2n1 [Example 25]: ≥ 90%
2. Nc1nc(-c2cccc(-n3ccc4cc(C5CC5)cc(F)c4c3=O)c2CO)c2c(-c3ccccc3)n[nH]c2n1 [Example 3]: ≥ 90%
3. COc1ccc(-c2cc3c(-c4cccc(-n5ccc6cc(C7CC7)cc(F)c6c5=O)c4CO)nc(N)nc3[nH]2)cc1 [Example 16]: ≥ 90%

Data request: Please state recorded inhibition at 0.03 µM (tested on UniProt Q06187) of Nc1nc(-c2cccc(-n3ccc4cc(C5CC5)cc(F)c4c3=O)c2CO)c2cc(-c3cccnc3)[nH]c2n1 [Example 17]
Data returned: ≥ 90%

Data request: Please state recorded inhibition at 0.03 µM (tested on UniProt Q06187) of Nc1nc(-c2cccc(-n3ccc4cc(C5CC5)cc(F)c4c3=O)c2CO)c2cc(-c3ccc(CN4CCOCC4)cc3)[nH]c2n1 [Example 26]
Data returned: ≥ 90%

Data request: Please state recorded inhibition at 0.03 µM (tested on UniProt Q06187) of Nc1nc(-c2cccc(-n3ccc4cc(C5CC5)cc(F)c4c3=O)c2CO)c2cc(-c3ccccc3)[nH]c2n1 [Example 1]
Data returned: ≥ 90%

Data request: Please state recorded inhibition at 0.03 µM (tested on UniProt Q06187) of Cn1cc(-c2cc3c(-c4cccc(-n5ccc6cc(C7CC7)cc(F)c6c5=O)c4CO)nc(N)nc3[nH]2)cn1 [Example 13]
Data returned: ≥ 90%

* * *

# experimental_target: C481S mutant BTK [BTK(C481S)] (Homo sapiens (Human), UniProt Q06187, C481S)
# test_name: C481S Mutant BTK Inhibitory Activity Test (mobility shift assay)
# Type: biochemical
# recorded_conditions: IC50[BTK(C481S)]/IC50[BTK(WT)]
assay_endpoint: C481S mutation-resistance

Worked set:
1. CCN1CC=C(c2cc3c(-c4cccc(-n5ccc6cc(C7CC7)cc(F)c6c5=O)c4CO)nc(N)nc3[nH]2)CC1: 2.1
2. Cn1cc(-c2cc3c(-c4cccc(-n5ccc6cc(C7CC7)cc(F)c6c5=O)c4CO)nc(N)nc3[nH]2)cn1: 1.2
3. CN1CCN(C(=O)N2CC=C(c3cc4c(-c5cccc(-n6ccc7cc(C8CC8)cc(F)c7c6=O)c5CO)nc(N)nc4[nH]3)CC2)CC1: 1.5
4. Nc1nc(-c2cccc(-n3ccc4cc(C5CC5)cc(F)c4c3=O)c2CO)c2cc(C3=CCN(C4COC4)CC3)[nH]c2n1: 2.2
5. Nc1nc(-c2cccc(-n3ccc4cc(C5CC5)cc(F)c4c3=O)c2CO)c2cc(C3=CCN(C(=O)N4CCCC4)CC3)[nH]c2n1: 1.6

With those in mind, consider the next compound.
Data request: Would you mind telling me what C481S mutation-resistance value was observed for CS(=O)(=O)c1ccc(-c2cc3c(-c4cccc(-n5ccc6cc(C7CC7)cc(F)c6c5=O)c4CO)nc(N)nc3[nH]2)cc1 ?
Data returned: 1.4
